experiment: P. aeruginosa biofilm formation inhibitors, primary screen, strain PAO1, LB-PBS medium, absorbance 600 nm (AID 1176); note: test concentration not given here; conditions: P. aeruginosa PAO1 growth/biofilm, A600, 12 h; higher = more signal
I'd appreciate it if you could supply z-score values for the items below.
# answer = number (no unit)

-- ask Please report the recorded z-score for [N-]=[N+]=NCc1ccccc1[C@H]1OC(c2ccc(OCCCO)cc2)=N[C@@]1(Cc1ccccc1)C(=O)NCCN1CCOCC1 .
-- reply 1.26

-- ask Continue with COC(=O)C1=CC(CCCO)=CC(c2ccc(CN3CCCC3)cc2)N(Cc2cc3c(cc2Br)OCO3)C=C1C(=O)OC (centres undefined)
-- reply 0.214

-- ask Continue with C=C[C@H](C)[C@H](OC(=O)Nc1ccc(OC)cc1)c1ccc(OCCO)cc1
-- reply 0.413

-- ask Continue with [N-]=[N+]=Nc1ccccc1[C@@H]1OC(c2ccc(OCCCO)cc2)=N[C@]1(Cc1ccccc1)C(=O)NCc1ccccc1
-- reply 0.563

====

I'd appreciate it if you could supply z-score values for the items below.
assay: A549 cell viability effects, profiling panel, calcein-AM fluorescence, 48 h, basal (AID 1162); details: higher = more signal; note: test concentration not given here
# answer = number (no unit)

-- ask Please report the recorded z-score for CC(C)C[C@@H]1NC(=O)CNC(=O)[C@@]23C(=O)N[C@@H](Cc4ccccc4)C2[C@H](C)[C@@]2(C)O[C@H]2C3/C=C/C/C=C\CNC1=O (stereo not given in full) .
-- reply -0.692

-- ask Continue with Cc1ccc([C@H]2C(C(=O)O)=C[C@@H](C(C)(C)C)N2S(=O)(=O)c2ccc(C)cc2)cc1
-- reply -0.728

-- ask Continue with NC(=O)[C@@H]1[C@H]2C(=O)O[C@H](c3ccccc3)[C@H](c3ccccc3)N2[C@H](c2ccc(OCCO)cc2)[C@@]12C(=O)Nc1ccc(C#CCCO)cc12
-- reply -0.0173

-- ask Continue with COc1cc(NN2C(C(O)C3CCCCC3)C=CC3C(=O)N(C)C(=O)C32)cc(OC)c1OC (stereo not given)
-- reply -0.536

-- ask Continue with C=C[C@@H](C)[C@@H](OC(=O)Nc1ccc(SC)cc1)c1ccc(OCCO)cc1
-- reply -0.555

-- ask Continue with COc1ccc(C#Cc2ccc3c(c2)[C@]2(C(=O)N3)[C@H](C(=O)Nc3nc4ccccc4s3)[C@H]3C(=O)O[C@H](c4ccccc4)[C@H](c4ccccc4)N3[C@@H]2c2ccccc2OCCO)cc1
-- reply 0.609

-- ask Continue with CC(C)C[C@@H]1NC(=O)[C@@H]2C[C@H](C(=O)NCCCCCC[N+](C)(C)C)[C@H](c3cccc(OCCO)c3)N2C1=O
-- reply -0.895

-- ask Continue with CN1C(=O)[C@@]2(Cc3ccccc3)N=C(c3ccc(OCCCO)cc3)O[C@H]2c2ccccc21
-- reply -1.11

-- ask Continue with O=C1O[C@H](c2ccccc2)[C@H](c2ccccc2)N2[C@H]1[C@@H](C(=O)N1CCCCCCC1)[C@]1(C(=O)Nc3ccc(C#CC4(O)CCCCCC4)cc31)[C@H]2c1ccc(O)cc1
-- reply 0.792

-- ask Continue with C=CCC(OC(C)=O)[C@@H]1[C@@H](N(Cc2cccc3ccccc23)C(=O)c2cccc3ccccc23)c2cc(OCCCO)ccc2N1C(=O)c1ccc2ccccc2c1 (stereo not given in full)
-- reply -0.0249

-- ask Continue with CCCCCCCCCCC(O)C1C=CC2C(=O)N(C)C(=O)C2N1Nc1cc(OC)c(OC)c(OC)c1 (stereo not given)
-- reply -2.12

-- ask Continue with CN1C(=O)C2C=CC(C(O)c3cc(C(F)(F)F)cc(C(F)(F)F)c3)N(Nc3ccccc3)C2C1=O (stereo not given)
-- reply -1.53

-- ask Continue with [N-]=[N+]=NC[C@H](Cc1ccccc1)NC(=O)c1ccccc1
-- reply 0.431

-- ask Continue with CC1(C)C(=O)C(c2ccccc2)=C2CN3C(=O)N(CCc4ccccc4)C(=O)C3(Cc3ccc(C(F)(F)F)cc3)C=C21 (stereo not given)
-- reply -0.902

-- ask Continue with CN(C)CCCNC(=O)[C@@H]1c2ccccc2C(=O)N(C2CCCCC2)[C@H]1c1ccc(CO)cc1
-- reply 0.634

====

experiment: small-molecule microarray binders of probe aXIP, primary screen, biochemical, NeuroSMM set, 635/667 nm fluorescence (AID 1119); settings: called active from +8 up or from −8 down;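 note: probe is the protein aXip251-270 applied at 1 µg/mL to compound-printed slides; binding of probe to printed compounds measured as 667 nm fluorescence plus signal to noise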
Calls of active or inactive are those of the source.
Answer with one of the outcomes given here: Y = active, N = inactive

-- ask Called result for COCCCNC(=O)[C@@]1(Sc2ccc(C)cc2)CC(=O)N(C(C)C)[C@@H]1c1ccc(CO)cc1I
-- reply N

-- ask Continue with COCCOC(=O)N1C(=O)[C@@]2(c3cc(C#CCNC(N)=O)ccc31)[C@H](c1ccc(OCCO)cc1)N1[C@H](c3ccccc3)[C@H](c3ccccc3)OC(=O)[C@H]1[C@@H]2C(N)=O
-- reply N

-- ask Continue with C=CCC(OC(C)=O)[C@@H]1[C@@H](N(Cc2ccc(-c3cccc(C(F)(F)F)c3)o2)C(=O)c2cccc3ccccc23)c2cc(OCCCO)ccc2N1C(=O)Cc1ccc(OC)cc1 (stereo partly specified)
-- reply N

-- ask Continue with CCOC(=O)C1=C[C@@H](C(C)(C)C)N(S(=O)(=O)c2ccc(C)cc2)[C@H]1c1ccccc1
-- reply N

-- ask Continue with O=C1OCCC/C=C\[C@H]2OC34C=CCN(c5ccc6ccccc6c5)C(=O)[C@H]3N(CCCO)C(=O)[C@@H]4C12 (stereo partly specified)
-- reply N

-- ask Continue with C=C(C(=O)CC[C@H](OC(=O)c1ccccc1-c1ccccc1C(=O)O)c1ccccc1OCCO)C(C)C
-- reply N

-- ask Continue with C=C[C@H](C)[C@H](OC(=O)Nc1ccc(OC)cc1)c1ccc(OCCO)cc1
-- reply N

-- ask Continue with CCC(CC)C(O)C1C=CC2C(=O)N(c3ccccc3)C(=O)C2N1Nc1ccc([N+](=O)[O-])cc1 (stereo unspecified)
-- reply N

-- ask Continue with CCCCNC(=O)c1ccc(C#C[Si](C(C)C)(C(C)C)C(C)C)c(OC(C)=O)c1
-- reply N

-- ask Continue with Cc1ccc(S[C@]2(C(=O)NC(C)C)CC(=O)N(Cc3ccccc3Cl)[C@@H]2c2ccc(CO)cc2)cc1
-- reply N

-- ask Continue with O=C1O[C@H](c2ccccc2)[C@H](c2ccccc2)N2[C@H]1[C@@H](C(=O)N1CCCCCCC1)[C@]1(C(=O)Nc3ccc(C#CC4(O)CCCCCC4)cc31)[C@H]2c1ccccc1OCCO
-- reply Y

-- ask Continue with C=C(COC)/C(=C/C[C@H](OC(C)=O)c1cccc(OCCO)c1)c1cnc2ccccc2c1
-- reply N

-- ask Continue with CN(C)C(=O)[C@]1(CCS(=O)(=O)c2ccccc2)N=C(c2ccc(OCCCO)cc2)O[C@@H]1c1ccccc1
-- reply N

-- ask Continue with CC(=O)n1cc(C(O)C2C=CC3C(=O)N(c4ccccc4)C(=O)C3N2Nc2ccc(C(C)C)cc2)c2ccccc21 (stereo unspecified)
-- reply N

-- ask Continue with C=C[C@@H](C)[C@H](O)c1ccc(OCCO)cc1
-- reply N

-- ask Continue with [N-]=[N+]=Nc1ccccc1C[C@@]1(C(=O)O)N=C(c2ccc(OCCCO)cc2)O[C@@H]1c1ccccc1N=[N+]=[N-]
-- reply N

====

I'd appreciate it if you could supply composite z-score values for the items below.
test system: Lefty1; experiment: Lefty1 binders on small-molecule microarrays, primary screen, biochemical, small-molecule microarray, 635/667 nm fluorescence (AID 1139); conditions: small-molecule microarray binding, fluorescence 635/667; higher = more signal
# answer = number (no unit)

-- ask Please report the recorded composite z-score for O=c1cccc(-c2ccco2)o1 .
-- reply 1.02

-- ask Continue with C[C@]1(C(=O)NCCN2CCOCC2)c2ccccc2C(=O)N(Cc2cc(F)cc(C(F)(F)F)c2)[C@H]1c1ccc(CO)cc1
-- reply 0.443

-- ask Continue with COC(=O)[C@@]1(Cc2ccccc2)[C@H]2c3cc(C(=O)N4CCCC4)n(CCSCCO)c3C[C@H]2CN1C(=O)c1ccccc1
-- reply 0.0341

-- ask Continue with CC(C)C(=C=CC[C@@H](O)c1cccc(OCCO)c1)C[C@@H](O)c1ccccn1
-- reply 0.402

-- ask Continue with CC(C)CNC(=O)[C@@H]1c2ccccc2C(=O)N(C2CCCCC2)[C@H]1c1ccc(CO)cc1
-- reply -0.991

-- ask Continue with Nc1cc(Br)ccc1C(=O)O
-- reply -0.0916

-- ask Continue with O=C1[C@@]23C=C(Br)[C@H](C[C@@H]2COC3)[C@@]12CO2
-- reply 0.414

-- ask Continue with CS(=O)(=O)CCOC(=O)C1=CC(CCCO)=CC(C2CC2)N(Cc2cccc(OC(F)(F)F)c2)C=C1C(=O)OCCS(C)(=O)=O (centres undefined)
-- reply 0.126

-- ask Continue with Cc1cccc([C@H]2C[C@H]3C(Br)=C[C@@H]2C(=O)[C@]32CO2)c1
-- reply 0.154
